Measured % CAF @ 10 μM,1 h accompanies every entry in the list below.
- Test Target: mutant G12C K-RAS (Homo sapiens, UniProt P01116, G12C)
- Construct: made in house; host or cells: E. coli BL21
- Experiment Summary: covalent adduct formation (CAF) with mutant G12C K-RAS
- Format: binding
- Condition Context: Table 6; 10 μM, 1 h

# Compound, Test Target, Unit Abbrev, % CAF @ 10 μM,1 h
measured = [
    ("C=CC(=O)N1C[C@H](C)N(c2nc(=O)n3c4c(c(-c5ccc(F)cc5F)c(Cl)cc24)OC[C@H]3CCCN2CC3CCC(C2)O3)C[C@H]1C", "mutant G12C K-RAS (Homo sapiens, UniProt P01116, G12C)", "%", 68.2),
    ("C=CC(=O)N1C[C@H](C)N(c2nc(=O)n3c4c(c(-c5ccc(F)cc5F)c(Cl)cc24)OC[C@@H]3CN2C[C@H]3CC[C@@H](C2)N3C)C[C@H]1C", "mutant G12C K-RAS (Homo sapiens, UniProt P01116, G12C)", "%", 91.6),
    ("C=CC(=O)N1C[C@H](C)N(c2nc(=O)n3c4c(c(-c5ccc(F)cc5F)c(Cl)cc24)OC[C@@H]3COC2CCN(C)C2)C[C@H]1C (stereo in doubt) [Example 336]", "mutant G12C K-RAS (Homo sapiens, UniProt P01116, G12C)", "%", 79),
]

// provenance: patent US12162893B2
